target-or-system: HEK cells stably transfected with tetracycline inducible hNR1 and hNR2A (Homo sapiens, UniProt Q05586+Q12879)
Construct: expressed in transfected cells; host or cells: HEK cells, stably transfected, tetracycline/doxycycline inducible
Sequence (Q12879 23-1464, other chains not shown): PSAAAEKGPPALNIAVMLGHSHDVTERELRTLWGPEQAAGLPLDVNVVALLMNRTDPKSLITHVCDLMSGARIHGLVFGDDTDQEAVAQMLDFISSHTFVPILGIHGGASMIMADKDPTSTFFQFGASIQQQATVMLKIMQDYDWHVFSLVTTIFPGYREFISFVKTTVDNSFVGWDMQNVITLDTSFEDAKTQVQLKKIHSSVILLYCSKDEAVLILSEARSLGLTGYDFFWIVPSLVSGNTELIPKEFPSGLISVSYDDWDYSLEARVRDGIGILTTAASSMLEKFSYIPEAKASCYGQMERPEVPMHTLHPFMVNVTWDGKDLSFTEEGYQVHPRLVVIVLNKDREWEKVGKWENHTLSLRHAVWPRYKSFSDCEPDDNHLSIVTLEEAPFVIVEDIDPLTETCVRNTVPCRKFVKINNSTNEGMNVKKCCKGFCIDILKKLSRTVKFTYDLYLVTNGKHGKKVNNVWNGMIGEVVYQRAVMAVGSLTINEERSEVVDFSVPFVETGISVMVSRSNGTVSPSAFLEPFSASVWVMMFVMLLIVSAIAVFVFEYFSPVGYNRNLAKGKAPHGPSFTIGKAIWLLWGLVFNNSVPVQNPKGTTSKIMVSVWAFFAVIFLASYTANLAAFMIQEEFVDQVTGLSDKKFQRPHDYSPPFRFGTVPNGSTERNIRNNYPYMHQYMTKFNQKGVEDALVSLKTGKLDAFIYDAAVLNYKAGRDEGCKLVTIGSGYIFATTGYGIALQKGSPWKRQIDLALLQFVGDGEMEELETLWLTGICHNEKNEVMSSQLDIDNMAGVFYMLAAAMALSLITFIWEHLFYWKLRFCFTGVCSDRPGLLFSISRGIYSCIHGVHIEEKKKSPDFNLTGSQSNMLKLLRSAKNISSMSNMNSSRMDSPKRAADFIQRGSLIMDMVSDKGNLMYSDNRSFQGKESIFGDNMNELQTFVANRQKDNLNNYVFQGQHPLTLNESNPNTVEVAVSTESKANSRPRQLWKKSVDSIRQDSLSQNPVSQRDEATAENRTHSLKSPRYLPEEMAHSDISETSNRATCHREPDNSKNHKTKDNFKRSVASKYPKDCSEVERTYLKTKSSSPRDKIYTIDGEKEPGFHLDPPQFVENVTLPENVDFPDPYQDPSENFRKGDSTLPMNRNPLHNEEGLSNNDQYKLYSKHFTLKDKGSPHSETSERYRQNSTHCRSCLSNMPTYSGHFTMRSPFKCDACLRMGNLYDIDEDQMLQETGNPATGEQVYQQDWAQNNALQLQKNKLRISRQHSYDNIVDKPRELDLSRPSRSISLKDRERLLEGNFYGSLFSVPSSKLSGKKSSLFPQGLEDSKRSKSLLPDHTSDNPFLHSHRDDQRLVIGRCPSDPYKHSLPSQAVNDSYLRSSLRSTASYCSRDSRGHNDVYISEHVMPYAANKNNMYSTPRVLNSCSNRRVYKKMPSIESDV
test-description: Assay 1: Cell-Based Assay, cytosolic calcium response to positive allosteric modulators (with 30 μM glycine and 300 nM L-glutamate, EC30)
condition-context: Table 2; cytosolic calcium response, with 30 μM glycine and 300 nM L-glutamate (EC30); — = no plateau was reached
pEC50: −log10 of the molar value.
reported-metric: pEC50

Sample records with pEC50:
>  <molecule>
CCN(Cc1cc(=O)n2c(-c3cnccn3)c(C)sc2n1)c1ccc(F)cc1

>  <quantitative-readout>
5.96

$$$$
>  <molecule>
CCN(Cc1cc(=O)n2c3c(sc2n1)CCC3CO)c1ccc(F)cc1 (stereo not drawn) [Example 8.5]

>  <quantitative-readout>
4.77

$$$$
>  <molecule>
CCN(Cc1cc(=O)n2c(C#N)csc2n1)c1ccc(F)cc1

>  <quantitative-readout>
5.24

$$$$
>  <molecule>
CCN(Cc1cc(=O)n2c(-c3cccs3)c(C)sc2n1)c1ccc(F)cc1

>  <quantitative-readout>
5.89

$$$$
>  <molecule>
CCN(Cc1cc(=O)n2c(C(C)O)csc2n1)c1ccc(F)cc1 (stereo not drawn)

>  <quantitative-readout>
5.66

$$$$

a = Cc1sc2nc(Cn3nc(C4CC4)c(F)c3C(F)(F)F)cc(=O)n2c1C1CC1CO (stereo not drawn)
b = CCN(Cc1cc(=O)n2c3c(sc2n1)CCC3C(N)=O)c1ccc(F)cc1 (stereo not drawn)
// select label with min value of measured pEC50 from [ a , b ] Let me know the label of the one you choose.
a

====

target-or-system: HEK cells stably transfected with tetracycline inducible hNR1 and hNR2A (Homo sapiens, UniProt Q05586+Q12879)
Construct: expressed in transfected cells; host or cells: HEK cells, stably transfected, tetracycline/doxycycline inducible
test-description: Assay 1: Cell-Based Assay, cytosolic calcium response to positive allosteric modulators (with 30 μM glycine and 300 nM L-glutamate, EC30)
condition-context: Table 3; cytosolic calcium response, with 30 μM glycine and 300 nM L-glutamate (EC30); — = no plateau was reached
reported-metric: EC50 (nM)

>  <compound>
Cc1sc2nc(Cn3nc(Cl)cc3C(F)(F)F)cc(=O)n2c1-c1cncc(Cl)c1

>  <result-unit>
nM

>  <quantitative-readout>
17300

$$$$

a = CCNC(=O)c1c(C)sc2nc(Cc3cc(C)cc(C#N)c3F)cc(=O)n12
b = CNC(=O)c1c(C)sc2nc(Cc3cccc(C(F)F)c3F)c(F)c(=O)n12
c = CCNC(=O)c1c(C)sc2nc(Cc3cc(C#N)cc(C4CC4)c3F)cc(=O)n12
d = CNC(=O)c1c(C)sc2nc(Cc3cccc(C4CC4)c3F)cc(=O)n12
e = CCN(Cc1cc(=O)n2c(C3CC3C#N)c(C)sc2n1)c1ccc(F)cn1 (stereo not shown)
Ordering criterion: EC50; begin with the maximum. Please list the labels in the order you were asked to rank them.
a, c, b, d, e
(a: 17500 nM, c: 3880 nM, b: 2570 nM, d: 932 nM, e: 74.2 nM)

====

target-or-system: HEK cells stably transfected with tetracycline inducible hNR1 and hNR2A (Homo sapiens, UniProt Q05586+Q12879)
Construct: expressed in transfected cells; host or cells: HEK cells, stably transfected, tetracycline/doxycycline inducible
test-description: Assay 1: Cell-Based Assay, cytosolic calcium response to positive allosteric modulators (with 30 μM glycine and 300 nM L-glutamate, EC30)
condition-context: Table 3; cytosolic calcium response, with 30 μM glycine and 300 nM L-glutamate (EC30); — = no plateau was reached
reported-metric: EC50 (µM)

Sample records with EC50:
>  <molecule>
CNC(=O)c1c(C(F)(F)F)sc2nc(Cn3nc(C(F)(F)F)cc3Cl)cc(=O)n12

>  <quantitative-readout>
1.16

$$$$
>  <molecule>
CCN(Cc1cc(=O)n2c(CC(=O)NC)c(C)sc2n1)c1ccc(F)cc1

>  <quantitative-readout>
0.292

$$$$
>  <molecule>
Cc1cc(C(F)(F)F)n(Cc2cc(=O)n3c(C(=O)NCC(F)(F)F)c(C)sc3n2)n1

>  <quantitative-readout>
36.6

$$$$
>  <molecule>
COc1sc2nc(Cn3nc(Cl)cc3C(F)(F)F)cc(=O)n2c1Cl

>  <quantitative-readout>
83

$$$$
>  <molecule>
Cc1sc2nc(Cn3nc(C(F)(F)F)cc3Cl)cc(=O)n2c1C(=O)C(C)C

>  <quantitative-readout>
0.123

$$$$

A = COc1sc2nc(Cn3nc(Cl)cc3C(F)(F)F)cc(=O)n2c1C(C)=O
B = CC(=O)c1csc2nc(Cn3nc(C(F)(F)F)cc3Cl)cc(=O)n12
Rank A against B by their EC50 values and give the higher one. Let me know the label of the one you choose.
B

====

target-or-system: HEK cells stably transfected with tetracycline inducible hNR1 and hNR2A (Homo sapiens, UniProt Q05586+Q12879)
Construct: expressed in transfected cells; host or cells: HEK cells, stably transfected, tetracycline/doxycycline inducible
test-description: Assay 1: Cell-Based Assay, cytosolic calcium response to positive allosteric modulators (with 30 μM glycine and 300 nM L-glutamate, EC30)
condition-context: Table 2; cytosolic calcium response, with 30 μM glycine and 300 nM L-glutamate (EC30); — = no plateau was reached
pEC50: −log10 of the molar value.
reported-metric: pEC50

Sample records with pEC50:
>  <compound>
CC(=O)c1c(C)sc2nc(Cn3nc(C(F)(F)F)cc3C3CC3)cc(=O)n12 [Example 18.2]

>  <pEC50>
5.66

$$$$
>  <compound>
Cc1sc2nc(COc3cccc(F)c3)cc(=O)n2c1[C@@H]1C[C@H]1CO (relative stereo) [Example 4.4]

>  <pEC50>
5.60

$$$$
>  <compound>
Cc1sc2nc(Cn3nc(C(F)(F)F)cc3C#N)cc(=O)n2c1[C@@H]1C[C@H]1CO (relative stereo) [Example 15.19]

>  <pEC50>
6.29

$$$$
>  <compound>
Cc1sc2nc(Cc3cncc4ccccc34)cc(=O)n2c1[C@@H]1C[C@H]1CO (relative stereo) [Example 20.4]

>  <pEC50>
5.07

$$$$
>  <compound>
Cc1sc2nc(COc3ccc(F)cc3)cc(=O)n2c1C1CC1CO (single isomer, unassigned) [Example 4.3]

>  <pEC50>
4.69

$$$$

P = CCN(Cc1cc(=O)n2c(Cn3cccn3)c(C)sc2n1)c1ccc(F)cc1 [Example 10.14]
Q = CCN(Cc1cc(=O)n2c(C(O)CCO)c(C)sc2n1)c1ccc(F)cc1 (stereo not shown) [Example 12.1]
// select label with min value of measured pEC50 from [ P , Q ] Let me know the label of the one you choose.
P

====

target-or-system: HEK cells stably transfected with tetracycline inducible hNR1 and hNR2A (Homo sapiens, UniProt Q05586+Q12879)
Construct: expressed in transfected cells; host or cells: HEK cells, stably transfected, tetracycline/doxycycline inducible
test-description: Assay 1: Cell-Based Assay, cytosolic calcium response to positive allosteric modulators (with 30 μM glycine and 300 nM L-glutamate, EC30)
condition-context: Table 3; cytosolic calcium response, with 30 μM glycine and 300 nM L-glutamate (EC30); — = no plateau was reached
pEC50: −log10 of the molar value.
reported-metric: pEC50

>  <molecule>
CCNC(=O)c1c(C)sc2nc(CN(C)c3ccc(Cl)cn3)cc(=O)n12

>  <pEC50>
5.23

$$$$

1 = O=c1cc(Cn2nc(C(F)(F)F)cc2Cl)nc2sc(C(F)(F)F)c(N3CC(F)C3)n12
2 = CCNC(=O)c1c(C)sc2nc(Cc3cccc(C4(F)CC4)c3F)cc(=O)n12
Rank 1 against 2 by their pEC50 values and give the higher one. Let me know the label of the one you choose.
1
(1: 5.86, 2: 5.40)

a = CNC(=O)Cc1c(C)sc2nc(Cn3nc(C(F)(F)F)cc3Cl)cc(=O)n12
b = Cc1sc2nc(Cn3nc(C(F)(F)F)cc3Cl)cc(=O)n2c1Br
Rank a against b by their pEC50 values and give the higher one. Let me know the label of the one you choose.
b
(b: 7.04, a: 5.80)

1 = CCNC(=O)c1c(OCC(F)(F)F)sc2nc(Cn3nc(C(F)(F)F)cc3Cl)cc(=O)n12
2 = Cc1sc2nc(Cn3nc(N)cc3Cl)cc(=O)n2c1Br
Rank 1 against 2 by their pEC50 values and give the higher one. Let me know the label of the one you choose.
1

I = O=c1cc(Cn2nc(C(F)(F)F)cc2Cl)nc2sc(C(F)(F)F)c(-c3cscn3)n12
II = CCNC(=O)c1c(C)sc2nc(Cc3cccc(OC)c3F)cc(=O)n12
// select label with min value of measured pEC50 from [ I , II ] Let me know the label of the one you choose.
II
(II: 4.82, I: 5.84)

I = COc1sc2nc(Cn3nc(C(F)(F)F)cc3Cl)cc(=O)n2c1C(C)=O
II = CCc1sc2nc(Cn3nc(Cl)cc3C(F)(F)F)cc(=O)n2c1C1CC1C#N (centres unmarked)
III = CCNC(=O)c1c(C)sc2nc(Cc3c(F)ccc(F)c3F)cc(=O)n12
Ordering criterion: pEC50; begin with the maximum. Please list the labels in the order you were asked to rank them.
II, I, III

A = O=c1cc(Cn2nc(C(F)(F)F)cc2Cl)nc2sc3c(n12)CCC3
B = CCNC(=O)c1c(C)sc2nc(Cn3nc(Cl)cc3C3CC3)cc(=O)n12
// select label with min value of measured pEC50 from [ A , B ] Let me know the label of the one you choose.
A
(A: 5.04, B: 5.38)

A = Cc1sc2nc(Cn3nc(Cl)cc3C(F)(F)F)cc(=O)n2c1C(F)(F)F
B = O=c1cc(Cn2nc(C(F)(F)F)cc2Cl)nc2sc(C(F)(F)F)c(-c3ccn[nH]3)n12
// select label with min value of measured pEC50 from [ A , B ] Let me know the label of the one you choose.
B
(B: 5.11, A: 5.83)
